From: PubChem BioAssay (NCI)

- Test system: BT-549 breast
- test-name: NCI-60 one-dose screen, 48 h (100 = growth as untreated, 0 = no growth, -100 = all killed)
- assay-setup: 10 µM unless noted
This is part of a sample that, as a whole, favours compounds with a hit. Of some 83,000 tested, about 20% had one in any assay.
Threshold 90%: growth strictly smaller gives fulfilled, otherwise not fulfilled.

Look over these answered cases.
compound: CCn1cc(C(=O)N/N=C/c2cccc(F)c2)c(=O)c2cc(F)c(N3CCNC(C)C3)c(F)c21 (centres undefined)
discrete-label: fulfilled
--
compound: COc1cc(/C=C2\C(=O)N(CCCOc3cc(O)c4c(=O)cc(-c5ccccc5)oc4c3)c3ccccc32)cc(OC)c1O
discrete-label: fulfilled
--
compound: CCN(CC)CCOc1ccc(Nc2ncc3cc(-c4c(Cl)cccc4Cl)c(=O)n(CCOC)c3n2)cc1
discrete-label: fulfilled
--
compound: C1CCC(N2CN3c4nonc4N4CN(C5CCCCC5)CN5c6nonc6N(C2)C3C45)CC1 (centres undefined)
discrete-label: not fulfilled
--
compound: CN(C)CCC(CCN(C)C)(C(=O)O)c1ccccc1
discrete-label: not fulfilled
--
compound: Clc1ccc(Nc2nnc(CNc3ccccc3)c3ccccc23)cc1
discrete-label: fulfilled
--
compound: C=C(C)[C@@H]1CC[C@]2(C)[C@H](C=CC3=C4C[C@@](C)(CO)CC[C@]4(C)CC[C@]32C)[C@@]1(C)CCCN
discrete-label: fulfilled
--
compound: ClCCn1cnc2c(SCc3ccccc3)ncnc21
discrete-label: fulfilled

Request: Is the reported growth for "O=C(Nc1cccnc1Nc1ccc(Cl)cc1)c1cn(Cc2cccc(Oc3ccccc3)c2)nn1" strictly below 90%?
Response: fulfilled

Request: Is the reported growth for COc1ccc(-c2cc(C(=O)N3N=C(c4ccc(N)cc4)CC3c3ccc(Cl)cc3)c3ccccc3n2)cc1 (centres undefined) strictly below 90%?
Response: fulfilled

###

- Test system: OVCAR-8 ovarian
- test-name: NCI-60 one-dose screen, 48 h (100 = growth as untreated, 0 = no growth, -100 = all killed)
- assay-setup: 10 µM unless noted
Compounds without any hit were thinned out: in the full panel of roughly 83,000, 20% have a hit. Active and inactive are the calls of the source. Rule for the calls: active = growth percent below 10; inactive = the rest.
measure-name: growth

compound: CN1C(=O)/C(=C/c2ccc(C(=O)Nc3ncc(Cc4cccc(C(F)(F)F)c4)s3)cc2)SC1=S
target: OVCAR-8 ovarian
growth: 59.8% (inactive)

compound: C/C(=C(\c1ccc(OCCN2CCCCCC2)cc1)c1ccc(OC(=O)c2ccccc2)cc1)c1ccc(Cl)cc1
target: OVCAR-8 ovarian
growth: 42.6% (inactive)

compound: CC1(C)CC(=O)C2=C(C1)C(c1ccc(Cl)cc1)n1ncc(C#N)c1N2 (stereo not drawn)
target: OVCAR-8 ovarian
growth: 97% (inactive)

compound: CCCCCCCCn1ccc2cc(NC(=O)CN3CCN(c4cc(C)nc(Cl)n4)CC3)ccc21
target: OVCAR-8 ovarian
growth: 94.9% (inactive)

compound: Cn1cc(-c2nc3c(F)cc4[nH]ncc4c3c3c2CCCC3)c(C(F)(F)F)n1
target: OVCAR-8 ovarian
growth: 39.4% (inactive)

growth measured on O=C1C=CC2(O)OC/C(=C\c3ccccc3)C(O)=C2C1=O (stereo not drawn) = 8.41% (active)

growth measured on "c1cc(OCCN2CCCC2)ccc1CNc1ccc2nc(CCC3CCCCC3)[nH]c2c1" = 43% (inactive)

growth measured on "Cn1c2ccccc2c2c3c(c4c5cc(Br)ccc5n(C)c4c21)C(=O)N(O)C3=O" = 24.8% (inactive)

###

- Test system: SK-MEL-5 melanoma
- test-name: NCI-60 one-dose screen, 48 h
- assay-setup: 10 µM unless noted
- Description: Growth inhibition of the SK-MEL-5 human tumor cell line is measured as a screen for anti-cancer activity. Cells are grown in 96 well plates and exposed to the test compound for 48 hours. Compounds are tested at a single concentration, which is 10^-5 M for most compounds. The reported endpoint is percent growth (GI% or GIPRCNT), where numbers from 0 - 100% represent growth inhibition, and numbers from -100% - 0 represent cell death. For example, a value of 40 represents 60% growth inhibition. […]
This is part of a sample that, as a whole, favours compounds with a hit. Of some 83,000 tested, about 20% had one in any assay. Activity calls are given as the source filed them. The calls were made as follows: active = growth percent below 10; inactive = the rest.
Choose the fitting class; nothing outside active, inactive is accepted.

Look over these answered cases.
compound: OC1(c2ccccc2)c2ccccc2N(c2ccccc2)c2ccc(Cl)cc21 (centres undefined)
discrete-label: active
//
compound: Cc1ccc(-c2nc(SCC(=O)N3CCN(c4cc5c(cc4F)c(=O)c(C(=O)O)cn5C4CC4)CC3)nc(Cl)c2C#N)cc1
discrete-label: inactive
//
compound: C=C1C(=O)O[C@@H]2C3C(=C(C)CC[C@@H]12)CC1O[C@]13C (some centres undefined)
discrete-label: inactive
//
compound: COc1ccc(C=Nc2c(C(=O)Nc3cccc(Cl)c3C)sc3nc(C)c(C(=O)/C=C/c4ccc(OC)cc4)cc23)cc1
discrete-label: active

Request: Tell me the recorded outcome of this test for "Cc1ccc(S(=O)(=O)OCC#CCOS(=O)(=O)c2ccc(C)cc2)cc1" .
Response: inactive

Request: Tell me the recorded outcome of this test for "O=C(NCCCCCCNC(=O)OCc1ccc2c(Cl)cc(Cl)c(O)c2n1)OCc1ccc2c(Cl)cc(Cl)c(O)c2n1" .
Response: active

Request: Tell me the recorded outcome of this test for "CS(=O)(=O)Nc1cc(-c2ccc3ncnc(Nc4ccc(F)c(Cl)c4)c3c2)ccc1Cl" .
Response: inactive

Request: Tell me the recorded outcome of this test for "CSc1ccc(N2C(=N)C(=S)N(c3ccc(C)cc3)C2=O)cc1" .
Response: inactive

Request: Tell me the recorded outcome of this test for "COCCn1cc(-c2nc(-c3cn(CCOC)c4ncccc34)cs2)c2cc(F)ccc21" .
Response: inactive

###

- System: SK-MEL-2 melanoma
- test-name: NCI-60 one-dose screen, 48 h (100 = growth as untreated, 0 = no growth, -100 = all killed)
- assay-setup: 10 µM unless noted
This is part of a sample that, as a whole, favours compounds with a hit. Of some 83,000 tested, about 20% had one in any assay.
measure-name: growth (%)
Use % as the unit, but write only the number.

molecule: COC1C(O)CC(OC2CC(OC3CC(O[C@@H]4C(=O)c5c(cc6cc(OC7CC(OC8CC(O)C(O)C(C)O8)C(O)C(C)O7)c(C)c(O)c6c5O)CC4[C@H](OC)C(=O)O)OC(C)C3O)OC(C)C2O)OC1C (some centres undefined)
growth (%): -34.2

molecule: Cc1nc2sc(C(=O)Nc3cccc4ccccc34)c(N)c2cc1C(=O)c1ccccc1
growth (%): 46.6

molecule: COc1ccc(C(=O)Nc2ncc(Cc3ccc(Cl)cc3)s2)cc1
growth (%): 23.9

molecule: c1ccc(-c2nc3ccccc3[nH]2)c(OCCCCCOc2ccccc2-c2nc3ccccc3[nH]2)c1
growth (%): 85.4

molecule: Cc1cc(O)cc(-c2nn(C)cc2-c2cc(N3CCOCC3)nc(-c3cccnc3)n2)c1
growth (%): 51.5

molecule: Cc1ccc2cnc(N)c(C#Cc3cc(C(=O)Nc4ccc(CN5CCN(C)CC5)c(C(F)(F)F)c4)cnc3C)c2c1
growth (%): 6.23

molecule: CCN(CC)CCOc1ccc(C(=O)/C=C\c2ccc(Cl)cc2Cl)cc1
growth (%): 81

molecule: C/C(=N\Nc1ccccc1)c1ccc(NC2=CC(=O)c3ccccc3C2=O)cc1
growth (%): 55.6

growth measured on "CCOC(=O)c1c(C)nc2ccccc2c1/C=C/c1ccc(F)cc1" = 75.2

###

- Tested on: MCF7 breast
- test-name: NCI-60 one-dose screen, 48 h (100 = growth as untreated, 0 = no growth, -100 = all killed)
- assay-setup: 10 µM unless noted
- Method: Growth inhibition of the MCF7 human tumor cell line is measured as a screen for anti-cancer activity. Cells are grown in 96 well plates and exposed to the test compound for 48 hours. Compounds are tested at a single concentration, which is 10^-5 M for most compounds. The reported endpoint is percent growth (GI% or GIPRCNT), where numbers from 0 - 100% represent growth inhibition, and numbers from -100% - 0 represent cell death. For example, a value of 40 represents 60% growth inhibition. […]
About 83,000 compounds went through this panel and 20% of them were active in at least one assay; those are over-represented in the sample as a whole.
Consider the reported growth of an entry and match it to a band in LOW: < 8%; MID: ≥ 8% and < 30%; HIGH: ≥ 30%

compound: COC1C(O)CC(OC2CC(OC3CC(O[C@@H]4C(=O)c5c(cc6cc(OC7CC(OC8CC(O)C(O)C(C)O8)C(O)C(C)O7)c(C)c(O)c6c5O)CC4[C@H](OC)C(=O)O)OC(C)C3O)OC(C)C2O)OC1C (some centres undefined)
discrete-label: MID

compound: CC(=O)N1N=C(c2ccc(Nc3nc(Nc4ccc(F)cc4)nc(Nc4ccc(F)cc4)n3)cc2)CC1c1ccc(N(C)C)cc1 (centres undefined)
discrete-label: HIGH

compound: CC(C)(C)c1ccc(C(=O)N/N=C/c2ccc(O)cc2O)cc1
discrete-label: MID

compound: CCOc1ncc([N+](=O)[O-])c(OCC)n1
discrete-label: HIGH

compound: Cc1c2ncccc2nc2[nH]c3ccc(OCCN(C)C)cc3c12
discrete-label: LOW

Request: Hi, small favor: classify CC12OC(CC(O)C1O)n1c3ccccc3c3c4c(c5c6ccccc6n2c5c31)C(=O)N(CCN1CCCC1)C4=O (centres undefined) by its growth when you get a moment.
Response: LOW

Request: Hi, small favor: classify "O=C(/C=C/c1ccccc1)c1cccc2ccccc12" by its growth when you get a moment.
Response: MID
